Kindly supply the reported MIC values for the records listed here.
Tested on: Bacillus subtilis
method: Antibacterial activity against Bacillus subtilis ATCC 6633
Type: functional

-- ask What MIC value was documented for this compound, `C=C1CCC[C@@H]2[C@@](C)(CC[C@H](CCCc3ccoc3)COS(=O)(=O)O)[C@H](C)CC[C@]12C.CN(C)C(=N)N` ?
-- reply 12.5 µg/mL

-- ask What MIC value was documented for this compound, `CC1(C)S[C@@H]2[C@H](NC(=O)[C@H](N)c3ccccc3)C(=O)N2[C@H]1C(=O)O` ?
-- reply 1.56 µg/mL

-- ask What MIC value was documented for this compound, `CC1=CC[C@H]2C(C)(C)CCC[C@]2(C)[C@H]1C[C@@H](OS(=O)(=O)O)[C@H](C)CCC/C(C)=C/Cc1cc(O)ccc1O.CN(C)C(=N)N` ?
-- reply 6.25 µg/mL

-- ask What MIC value was documented for this compound, `CN(C)C(=N)N.C[C@@H]1CCC2=C(CCCC2(C)C)[C@@]1(C)CC[C@H](CCCc1ccoc1)COS(=O)(=O)O` ?
-- reply 6.25 µg/mL

-- ask What MIC value was documented for this compound, `CC1=CC[C@H]2C(C)(C)CCC[C@]2(C)[C@H]1C/C=C(\C)CCC/C(C)=C/Cc1cc(O)ccc1O` ?
-- reply 3.25 µg/mL

-- ask What MIC value was documented for this compound, CC1=CC[C@H]2C(C)(C)CCC[C@]2(C)[C@H]1C[C@@H](OS(=O)(=O)[O-])[C@H](C)CCC/C(C)=C/Cc1cc(O)ccc1O.[Na+] [HALISULFATE 1] ?
-- reply 1.56 µg/mL

-- ask What MIC value was documented for this compound, CC1=CCC[C@@H](C)[C@]1(C)CC/C(C)=C/CCC(CCCc1ccoc1)COS(=O)(=O)O.CN(C)C(=N)N (stereo partly drawn) ?
-- reply 6.25 µg/mL

-- ask What MIC value was documented for this compound, `C=C1CC[C@H]2C(C)(C)CCC[C@]2(C)[C@H]1C[C@@H](OS(=O)(=O)[O-])[C@H](C)CCC/C(C)=C/Cc1cc(O)ccc1O.[Na+]` ?
-- reply 1.56 µg/mL
